Exercise: for every item that follows, state its recorded SPOT peptide array binding signal intensity.
target: AgBem1-D1; experiment: SPOT peptide array binding signal intensity (averaged, normalized) (arbitrary units (background-subtracted, floor 0; scale differs between SH3 domains)); higher = stronger binding of the SH3 domain to the peptide
One number for each entry.

Ask | Give me measured SPOT peptide array binding signal intensity, please, for this binder: LKVTPGRRAPTISKI
Reply | 63.5

Ask | Give me measured SPOT peptide array binding signal intensity, please, for this binder: RSRRSSFAYPQQVAI
Reply | 91.5

# batch size: 6; output SPOT peptide array binding signal intensity per entry
1. KDKSRPPRPPPKPLH
2. NPLPKEPRLPKRKVA
3. ALKQKKIPPPFKPHL
4. FYHRPAPKPPVTKKV
5. LKQRFFLMFPKSIIW
6. TSIEIPKRSPLRFTS

Reply |
1. 30
2. 66.5
3. 4
4. 68
5. 102
6. 9
